- Assay method text: Half life in Sprague-Dawley rat at 1 mg/kg, iv
- Type: ADME, organism-based
- Parameters: dose 1 mg/kg, route intravenous
- Protocol conditions: in vivo
Property measured: half-life (min)

Some solved entries appear below for comparison.
Cc1ccc(S(=O)(=O)NC(=O)N2CCC(N3CCC(Oc4ccc(Cl)cc4C)CC3)CC2)cc1: 54
O=C(c1c[nH]c(=O)c2ccccc12)N1CCC(N2CCC(Oc3ccc(Cl)c(Cl)c3)CC2)CC1: 252
Cc1ccc(S(=O)(=O)NC(=O)N2CCC(N3CCC(Oc4ccc(Cl)c(Cl)c4)CC3)CC2)cc1: 162
COc1cccc(C(=O)NCCN2CCC(Oc3ccc(Cl)c(Cl)c3)CC2)c1: 108

A. Cc1c(Cl)ccc(OC2CCN(C3CCN(S(=O)(=O)NC(=O)c4ccccc4)CC3)CC2)c1Cl
B. CS(=O)(=O)c1cccc(C(=O)N2CCC(N3CCC(Oc4ccc(Cl)c(Cl)c4)CC3)CC2)c1
Data request: Look at A and B . Which one has the lower recorded half-life number? In your reply, give the label of the chosen option.
Data returned: A
(A: 96 min, B: 414 min)

// provenance: ChEMBL document CHEMBL2169805
